# Species on record: Rattus norvegicus
# ASSAY METHOD TEXT: Open TG-GATES - Regimen: Single
# Type: toxicity, organism-based, Sprague-Dawley
# Set-up: regimen Single, gender Male, age 6 weeks
# PARTICULARS: in vivo, po, 300 mg/kg, 9 h, tissue Liver, route gavage, dose level Middle
Catalogue of molecules with associated LIVER
Enter your answer as a number in g; do not include the unit.

Cc1nnc2n1-c1ccc(Cl)cc1C(c1ccccc1Cl)=NC2 ... 7.6
COC(=O)C1=C(C)NC(C)=C(C(=O)OC)C1c1ccccc1[N+](=O)[O-] ... 7.3

Req: Determine from records and report LIVER for CN/C(=N/CCSCc1nc[nH]c1C)NC#N
Resp: 8.8

Req: Determine from records and report LIVER for O=C(OC[C@H]1O[C@@H](OC(=O)c2cc(O)c(O)c(OC(=O)c3cc(O)c(O)c(O)c3)c2)[C@H](OC(=O)c2cc(O)c(O)c(OC(=O)c3cc(O)c(O)c(O)c3)c2)[C@@H](OC(=O)c2cc(O)c(O)c(OC(=O)c3cc(O)c(O)c(O)c3)c2)[C@@H]1OC(=O)c1cc(O)c(O)c(OC(=O)c2cc(O)c(O)c(O)c2)c1)c1cc(O)c(O)c(OC(=O)c2cc(O)c(O)c(O)c2)c1
Resp: 7.5

Req: Determine from records and report LIVER for CNC(=C[N+](=O)[O-])NCCSCc1ccc(CN(C)C)o1
Resp: 9.2

====

# Organism: Rattus norvegicus
# ASSAY METHOD TEXT: Open TG-GATES - Regimen: Daily Repeat
# Type: toxicity, organism-based, Sprague-Dawley
# Set-up: regimen Daily Repeat, gender Male, age 6 weeks
# PARTICULARS: in vivo, po, 300 mg/kg, 72 h, tissue Plasma, route gavage, dose level Middle, time 3 day
METRIC NAME: PL (mg/dL)
Enter your answer as a number in mg/dL; do not include the unit.

Cc1nnc2n1-c1ccc(Cl)cc1C(c1ccccc1Cl)=NC2 ... 155
CNC(=C[N+](=O)[O-])NCCSCc1ccc(CN(C)C)o1 ... 142.8
O=C(OC[C@H]1O[C@@H](OC(=O)c2cc(O)c(O)c(OC(=O)c3cc(O)c(O)c(O)c3)c2)[C@H](OC(=O)c2cc(O)c(O)c(OC(=O)c3cc(O)c(O)c(O)c3)c2)[C@@H](OC(=O)c2cc(O)c(O)c(OC(=O)c3cc(O)c(O)c(O)c3)c2)[C@@H]1OC(=O)c1cc(O)c(O)c(OC(=O)c2cc(O)c(O)c(O)c2)c1)c1cc(O)c(O)c(OC(=O)c2cc(O)c(O)c(O)c2)c1 ... 159.2

Req: Determine from records and report PL for CCOc1ccc(NC(C)=O)cc1
Resp: 174.4

Req: Determine from records and report PL for CN/C(=N/CCSCc1nc[nH]c1C)NC#N
Resp: 156.2

Req: Determine from records and report PL for COC(=O)C1=C(C)NC(C)=C(C(=O)OC)C1c1ccccc1[N+](=O)[O-]
Resp: 159.2

====

# Organism: Rattus norvegicus
# ASSAY METHOD TEXT: Open TG-GATES - Regimen: Single
# Type: toxicity, organism-based, Sprague-Dawley
# Parameters: regimen Single, gender Male, age 6 weeks
# PARTICULARS: in vivo, po, 300 mg/kg, 24 h, tissue Plasma, route gavage, dose level Middle
Catalogue of molecules with associated Ca
Enter your answer as a number in mg/dL; do not include the unit.

Recorded Ca, per entry:
O=C(OC[C@H]1O[C@@H](OC(=O)c2cc(O)c(O)c(OC(=O)c3cc(O)c(O)c(O)c3)c2)[C@H](OC(=O)c2cc(O)c(O)c(OC(=O)c3cc(O)c(O)c(O)c3)c2)[C@@H](OC(=O)c2cc(O)c(O)c(OC(=O)c3cc(O)c(O)c(O)c3)c2)[C@@H]1OC(=O)c1cc(O)c(O)c(OC(=O)c2cc(O)c(O)c(O)c2)c1)c1cc(O)c(O)c(OC(=O)c2cc(O)c(O)c(O)c2)c1 ... 10.8
COC(=O)C1=C(C)NC(C)=C(C(=O)OC)C1c1ccccc1[N+](=O)[O-] ... 10.6
Cc1nnc2n1-c1ccc(Cl)cc1C(c1ccccc1Cl)=NC2 ... 11.3

Req: Determine from records and report Ca for CN/C(=N/CCSCc1nc[nH]c1C)NC#N
Resp: 10.9

Req: Determine from records and report Ca for CNC(=C[N+](=O)[O-])NCCSCc1ccc(CN(C)C)o1
Resp: 10.7
